Reported self-splicing fitness (ln) values for a set of sequences
Test protocol: self-splicing fitness, log relative to wild type (ln ratio); higher = more splicing; Tetrahymena group I intron in knt gene, E. coli kanamycin selection, DiMSum; sequences stand for … in CUCUCU…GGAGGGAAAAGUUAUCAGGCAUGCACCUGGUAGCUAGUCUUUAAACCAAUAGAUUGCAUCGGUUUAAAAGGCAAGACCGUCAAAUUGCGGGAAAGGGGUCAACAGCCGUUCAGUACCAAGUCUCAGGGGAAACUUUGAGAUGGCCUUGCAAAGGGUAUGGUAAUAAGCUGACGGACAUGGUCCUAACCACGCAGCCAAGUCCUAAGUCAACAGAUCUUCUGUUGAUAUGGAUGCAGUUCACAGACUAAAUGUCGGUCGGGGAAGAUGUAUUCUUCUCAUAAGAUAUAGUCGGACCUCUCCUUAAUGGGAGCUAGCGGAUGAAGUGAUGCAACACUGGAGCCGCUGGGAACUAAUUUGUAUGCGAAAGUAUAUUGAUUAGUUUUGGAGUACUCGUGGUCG;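 note: selection with 25 µg/mL kanamycin versus none on LB agar overnight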
Conditions used: 37 °C
Lab note: jot down the number only; don't add units.

Below, each entry is followed by its recorded self-splicing fitness (ln) result.
| Record sequence | self-splicing fitness (ln) |
| --- | --- |
| AGAUAGCAAUAUUACGCGUA | -1.41 |
| UUUGAGCAAUAUUACGAACU | -2.77 |
| UUGCAGCAAUAUUACGGUCA | 0.556 |
| UUGGAGCAAUAUUACGGACA | -1.91 |
| GUCCAGCAAUAUUACGGGCG | -0.72 |

Now look at this one.
Exam item: Given the sequence UGCUAGCAAUAUUACGCAAU , what is its reported self-splicing fitness (ln)?
Marked response: -2.31

====

Test protocol: self-splicing fitness, log relative to wild type (ln ratio); higher = more splicing; Tetrahymena group I intron in knt gene, E. coli kanamycin selection, DiMSum; sequences stand for … in CUCUCU…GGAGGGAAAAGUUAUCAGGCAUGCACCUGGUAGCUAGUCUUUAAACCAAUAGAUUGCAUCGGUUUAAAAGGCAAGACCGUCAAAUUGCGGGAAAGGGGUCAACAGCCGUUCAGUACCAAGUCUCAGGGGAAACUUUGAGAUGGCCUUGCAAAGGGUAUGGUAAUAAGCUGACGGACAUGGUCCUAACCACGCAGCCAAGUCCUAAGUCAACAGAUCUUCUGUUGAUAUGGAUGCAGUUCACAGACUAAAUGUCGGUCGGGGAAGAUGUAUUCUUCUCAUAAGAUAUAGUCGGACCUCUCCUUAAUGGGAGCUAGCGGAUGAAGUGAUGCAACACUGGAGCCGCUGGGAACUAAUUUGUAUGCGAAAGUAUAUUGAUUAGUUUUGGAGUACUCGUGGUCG
Conditions used: 30 °C
Reported self-splicing fitness (ln) values for a set of sequences
Lab note: jot down the number only; don't add units.

Below, each entry is followed by its recorded self-splicing fitness (ln) result.
| Record sequence | Measurement |
| --- | --- |
| UGCUAGCAAUAUUACGGAAC | -1.04 |
| UGAGAGCAAUAUUACGGCCA | -1.63 |
| GCUAAGCAAUAUUACGUUAA | -2.72 |

Exam item: Given the sequence AUAGAGCAAUAUUACGGGCU , what is its reported self-splicing fitness (ln)?
Marked response: -4.11

Exam item: Given the sequence UAUGAGCAAUAUUACGUGUC , what is its reported self-splicing fitness (ln)?
Marked response: -3.77

Exam item: Given the sequence CGUAAGCAAUAUUACGCUUA , what is its reported self-splicing fitness (ln)?
Marked response: -3.67

Just for reference, the supplement of paper PMC7877785 is where these values come from.
